Target: putative β5 subunit of P. falciparum proteasome (Plasmodium falciparum, UniProt Q8IJT1)
Assay: Proteasome activity in intact inhibitor-treated trophozoites by MV151 labeling
measured_parameter: pIC50
To interpret pIC50, take it as minus log10 of a concentration measured in moles per litre.

Recorded pIC50 for CC(C)C[C@H](NC(=O)[C@H](CCc1ccccc1)NC(=O)CN1CCOCC1)C(=O)N[C@@H](Cc1ccccc1)C(=O)N[C@@H](CC(C)C)C(=O)[C@@]1(C)CO1 [carfilzomib, Carfilzomib] on putative β5 subunit of P. falciparum proteasome (Plasmodium falciparum, UniProt Q8IJT1) was 7.60
